Experiment: The retention time in min (35 uM)
Assay type: ADME
The label true (1) is reserved for Retention time strictly under 9 min; false (0) covers values equal to or above it.

Enquiry: # check: Retention time < 9 min for CC(C)(C)C[C@H](NC(=O)[C@H](CC(=O)O)NC(=O)CCCOc1ccc(C(=N)N)cc1)C(=O)O
Return: false (0)

====

Recorded Retention time by entry
Assay: The retention time in min (25 uM)
Assay type: ADME
Just the number please, in min, no unit attached.

Some solved entries appear below for comparison.
- query-smiles: "CC(C)[C@H](NC(=O)[C@H](CC(=O)O)NC(=O)CCCCOc1ccc(C(=N)N)cc1)C(=O)O"
  Retention time / min: 7.547
- query-smiles: "CC(C)[C@H](NC(=O)[C@H](CC(=O)O)NC(=O)CCCOc1ccc(C(=N)N)cc1)C(=O)O"
  Retention time / min: 5.898

Enquiry: Could you share which Retention time value was measured for CC(C)C[C@H](NC(=O)[C@H](CC(=O)O)NC(=O)CCCOc1ccc(C(=N)N)cc1)C(=O)O ?
Return: 9.413

Enquiry: Could you share which Retention time value was measured for CN(C(=O)[C@H](CC(=O)O)NC(=O)CCCCOc1ccc(C(=N)N)cc1)[C@@H](Cc1ccc(O)cc1)C(=O)O ?
Return: 17.87
